# Procedure Details: qHTS assay to identify small molecule agonists of the hypoxia (HIF-1) signaling pathway - cell viability counter screen (AID 1224844); note: nearly all actives have a fitted effect of over 50% in size
# Stated Conditions: HRE-bla ME-180 viability, CellTiter-Glo luminescence, 17 h; series mostly up to 76.8 µM
# Excerpt: National Center for Advancing Translational Sciences [NCATS] NIH Chemical Genomics Center [NCGC] U.S. Environmental Protection Agency [EPA] National Institutes of Environmental Health Sciences [NIEHS] National Toxicology Program [NTP] U.S. Food and Drug Administration [FDA] Hypoxia-inducible factor-1 (HIF-1) is the major hypoxia-regulated transcription factor that controls cellular responses to low oxygen concentration. […]
Records with an inconclusive call do not appear. The source made the active and inactive calls. Calls come from the whole dose curve.
Quantity Kind: outcome

[[record]]
compound = "O=Cc1ccc(CO)o1"
value = "inactive"

[[record]]
compound = "Cc1cc(CC(=O)O)n(C)c1C(=O)c1ccc(Cl)cc1"
value = "inactive"

[[record]]
compound = "c1cnc2c(c1)ccc1cccnc12"
value = "inactive"

[[record]]
compound = "Clc1cccc(Cl)c1NC1=NCCN1"
value = "inactive"

[[record]]
compound = "O=C1C(N(CO)C(=O)NCO)N(CO)C(=O)N1CO (stereo not drawn)"
value = "inactive"

[[record]]
compound = "COC(=O)OC"
value = "inactive"

[[record]]
compound = "C[n+]1ccn(CCO)c1"
value = "inactive"

[[record]]
compound = "CC(C)(C)NC[C@H](O)COc1nsnc1N1CCOCC1"
value = "inactive"

